Test system: MCF-7 (breast cancer)
Assay: MTT cell viability assay, MCF-7
Type: cell-based
Conditions: Homo sapiens, MCF7, read-out: Cytotoxicity %, MCF-7
Value kind: cytotoxicity at 100 µM (%)
Numbers only, in %.

Below, 3 molecules whose answers are already recorded.
>>> readout_number("CS(=O)(=O)Oc1ccc(C=NNC(=O)c2nc3ccccc3s2)cc1")
62.5
>>> readout_number("COc1ccc(C=NNC(=O)c2nc3ccccc3s2)cc1O")
58.1
>>> readout_number("CCCS(=O)(=O)Oc1ccc(C=NNC(=O)c2nc3ccccc3s2)cc1OC")
59.6

# input Supply recorded cytotoxicity at 100 µM for "CCS(=O)(=O)Oc1ccc(C=NNC(=O)c2nc3ccccc3s2)cc1" here.
# output 62.3
